- study-system: Rac GTPase-activating protein 1 (Homo sapiens)
- Sequence (Q9H0H5 whole entry): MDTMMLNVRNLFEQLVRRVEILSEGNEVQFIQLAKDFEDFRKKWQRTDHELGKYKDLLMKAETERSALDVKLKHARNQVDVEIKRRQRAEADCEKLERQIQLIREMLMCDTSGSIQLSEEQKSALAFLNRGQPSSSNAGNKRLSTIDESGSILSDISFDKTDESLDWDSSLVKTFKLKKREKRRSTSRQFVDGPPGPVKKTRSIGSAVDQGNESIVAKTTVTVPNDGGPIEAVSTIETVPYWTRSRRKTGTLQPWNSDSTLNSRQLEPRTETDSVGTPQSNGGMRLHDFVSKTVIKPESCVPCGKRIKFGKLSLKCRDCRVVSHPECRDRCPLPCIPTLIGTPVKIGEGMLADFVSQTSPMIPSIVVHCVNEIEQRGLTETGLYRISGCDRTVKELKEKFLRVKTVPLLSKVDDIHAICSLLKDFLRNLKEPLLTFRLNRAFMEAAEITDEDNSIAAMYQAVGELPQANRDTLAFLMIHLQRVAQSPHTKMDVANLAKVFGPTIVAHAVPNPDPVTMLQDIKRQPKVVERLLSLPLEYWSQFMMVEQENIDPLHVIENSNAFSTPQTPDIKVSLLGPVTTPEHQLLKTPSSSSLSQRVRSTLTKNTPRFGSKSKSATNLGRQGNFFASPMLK
- assay-comment: MgcRacGAP GTPase-activating activity inhibitors, confirmation, biochemical, ADP Hunter fluorescence, primary and confirmatory (AID 624330)
- Type: functional
The source made the active and inactive calls.

{"compound": "Fc1ccc(CNCCc2ccccc2)cc1", "study-system": "Rac GTPase-activating protein 1 (Homo sapiens)", "IC50": "249 µM (active)"}
{"compound": "COc1ccc(-c2cc(C(=O)Nc3ccc(O)cc3)c3ccccc3n2)cc1OC", "study-system": "Rac GTPase-activating protein 1 (Homo sapiens)", "IC50": "159 µM (active)"}
{"compound": "Cc1cc(-c2ccccc2)nc(N/N=C/c2ccc(O)cc2O)n1", "study-system": "Rac GTPase-activating protein 1 (Homo sapiens)", "IC50": "69.1 µM (active)"}
{"compound": "COc1cc(/C=N/NC(=S)Nc2cccc(S(=O)(=O)N(C)C)c2)ccc1O", "study-system": "Rac GTPase-activating protein 1 (Homo sapiens)", "IC50": "29 µM (active)"}
{"compound": "O=C1NC(=O)N(c2ccc(C(=O)O)cc2)C(=O)/C1=C/c1c[nH]c2ccccc12", "study-system": "Rac GTPase-activating protein 1 (Homo sapiens)", "IC50": "97.5 µM (active)"}
{"compound": "COc1cc(/C=C/C(=O)OCC(=O)NC(=O)NC(C)C)ccc1O", "study-system": "Rac GTPase-activating protein 1 (Homo sapiens)", "IC50": "47.7 µM (active)"}
{"compound": "CCn1nc(CC(C)C)cc1C(=O)N1CCCC(Nc2ccc(OC)cc2)C1 (stereo not drawn)", "study-system": "Rac GTPase-activating protein 1 (Homo sapiens)", "IC50": "121 µM (active)"}
{"compound": "O=C(CN1CCN(C/C=C/c2ccccc2)CC1)Nc1ccccc1C(=O)NC1CC1", "study-system": "Rac GTPase-activating protein 1 (Homo sapiens)", "IC50": "90.5 µM (active)"}
{"compound": "CCOC(=O)CSc1nc(N)c(C(=O)Nc2ccc(N(C)C)cc2)s1", "study-system": "Rac GTPase-activating protein 1 (Homo sapiens)", "IC50": "31.7 µM (active)"}
{"compound": "COc1cccc(OCC(O)CN2CCN(C)CC2)c1 (stereo not drawn)", "study-system": "Rac GTPase-activating protein 1 (Homo sapiens)", "IC50": "74.6 µM (active)"}
{"compound": "COc1cc(/C=C2\\SC(=Nc3c(C)n(C)n(-c4ccccc4)c3=O)NC2=O)ccc1O", "study-system": "Rac GTPase-activating protein 1 (Homo sapiens)", "IC50": "38.7 µM (active)"}
{"compound": "Oc1ccc(/C=N/Nc2ncnc3c2ncn3Cc2ccccc2)cc1O", "study-system": "Rac GTPase-activating protein 1 (Homo sapiens)", "IC50": "23 µM (active)"}
{"compound": "CCN(CC)c1ccc(/C=N/NC(=O)c2cc3ccccc3[nH]2)cc1", "study-system": "Rac GTPase-activating protein 1 (Homo sapiens)", "IC50": "146 µM (active)"}
{"compound": "C/N=c1\\scc(C)n1/N=C/c1cc(Br)c(O)c(OC)c1", "study-system": "Rac GTPase-activating protein 1 (Homo sapiens)", "IC50": "14.4 µM (active)"}
{"compound": "O=C(CN1CCCCCC1)NN(Cc1ccccc1)c1ccccc1", "study-system": "Rac GTPase-activating protein 1 (Homo sapiens)", "IC50": "301 µM (active)"}
{"compound": "COc1cc(OC)c(Cl)cc1N", "study-system": "Rac GTPase-activating protein 1 (Homo sapiens)", "IC50": "35.9 µM (active)"}
{"compound": "CCOCCCNc1nc(S)nc2cc(OC)c(OC)cc12", "study-system": "Rac GTPase-activating protein 1 (Homo sapiens)", "IC50": "83 µM (active)"}
{"compound": "CC(=O)Nc1ccc2sn(-c3ccccc3)c(=O)c2c1", "study-system": "Rac GTPase-activating protein 1 (Homo sapiens)", "IC50": "53.3 µM (active)"}

====

- study-system: 72 kDa type IV collagenase (Homo sapiens, UniProt P08253)
- Sequence (P08253 whole entry): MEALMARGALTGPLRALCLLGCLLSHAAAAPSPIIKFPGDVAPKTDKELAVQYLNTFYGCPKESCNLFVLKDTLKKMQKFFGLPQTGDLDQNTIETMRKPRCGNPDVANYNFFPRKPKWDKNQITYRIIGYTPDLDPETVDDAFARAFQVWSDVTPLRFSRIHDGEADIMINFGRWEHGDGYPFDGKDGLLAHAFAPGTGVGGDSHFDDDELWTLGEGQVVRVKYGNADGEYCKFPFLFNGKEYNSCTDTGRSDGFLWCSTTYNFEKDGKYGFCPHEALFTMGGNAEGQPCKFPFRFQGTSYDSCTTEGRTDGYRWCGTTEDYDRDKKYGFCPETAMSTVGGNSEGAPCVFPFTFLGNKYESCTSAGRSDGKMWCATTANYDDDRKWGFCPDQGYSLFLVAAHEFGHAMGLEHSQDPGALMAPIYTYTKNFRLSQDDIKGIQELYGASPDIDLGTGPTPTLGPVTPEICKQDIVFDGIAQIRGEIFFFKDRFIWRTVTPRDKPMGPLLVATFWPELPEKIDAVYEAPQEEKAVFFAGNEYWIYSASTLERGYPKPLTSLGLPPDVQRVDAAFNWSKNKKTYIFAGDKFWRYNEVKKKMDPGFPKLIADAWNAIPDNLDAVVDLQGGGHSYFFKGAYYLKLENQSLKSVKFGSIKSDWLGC
- assay-comment: Dose Response validation of uHTS RPN11 inhibitor hits using a MMP-2 Fluorescence assay.
- Format: functional
Activity calls are given as the source filed them.
Classes used: active, inactive

{"input-smiles": "C/N=c1\\scc(-c2cc(OC)ccc2OC)n1/N=C/c1c(C)[nH]c2ccccc12", "label": "inactive"}
{"input-smiles": "COc1ccc(Cl)cc1C(=O)Nc1cccc(-c2ccc3nncn3n2)c1", "label": "active"}
{"input-smiles": "C=CCn1cc(/C=N/NC(=O)COc2cccc3cccnc23)c2ccccc21", "label": "inactive"}
{"input-smiles": "Cc1ccsc1/C=N/n1c(S)nnc1-c1cc(-c2ccccc2)[nH]n1", "label": "inactive"}

====

Collected EC50 values appear next to each entry.
- study-system: RNA-binding protein pos-1 (Caenorhabditis elegans)
- Sequence (G5EF15 whole entry, the tested form may be a part): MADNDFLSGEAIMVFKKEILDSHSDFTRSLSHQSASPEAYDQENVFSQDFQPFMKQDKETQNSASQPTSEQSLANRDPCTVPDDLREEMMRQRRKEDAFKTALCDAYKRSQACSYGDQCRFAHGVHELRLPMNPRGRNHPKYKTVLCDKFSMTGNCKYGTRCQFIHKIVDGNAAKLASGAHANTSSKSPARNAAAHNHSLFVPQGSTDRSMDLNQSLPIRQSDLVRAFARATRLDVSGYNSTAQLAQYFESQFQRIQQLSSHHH
- assay-comment: inhibitors of POS-1/mex-3 RNA binding, dose response, biochemical, fluorescence polarization (AID 1964);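 also: purified POS-1 fused to maltose binding protein made in E. coli; potency of compounds blocking POS-1 binding to fluorescent RNA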
Active and inactive are the calls of the source.
experimental-readout: EC50

{"compound": "CCSC1=N/C(=C\\c2ccccc2)C(=O)N1", "experimental-readout": "EC50", "result": "> 300 µM (not active)"}
{"compound": "CC1(OC(=O)CCc2ccccc2)C(=O)C=C2C=C(C3CC3)OC=C2C1=O (stereo not given)", "experimental-readout": "EC50", "result": "36.6 µM (active)"}
{"compound": "CCCC[n+]1ccn(C2=C([N-]S(=O)(=O)c3ccc(Cl)cc3)C(=O)c3ccccc3C2=O)c1", "experimental-readout": "EC50", "result": "> 300 µM (inconclusive)"}
{"compound": "c1ccc(-c2cn3nc(-c4ccccc4)c(-c4ccccc4)nc3n2)cc1", "experimental-readout": "EC50", "result": "2.82 µM (active)"}
{"compound": "CC(C)COc1ccc(/C=C2/Sc3ccccc3C2=O)cc1", "experimental-readout": "EC50", "result": "> 300 µM (not active)"}
{"compound": "COC(=O)c1[nH]c2cc(OC)c(OC)cc2c1/C=N/Nc1ccccc1", "experimental-readout": "EC50", "result": "20 µM (active)"}
{"compound": "N#Cc1cc(NC(=O)c2ccc(F)cc2)c(O)n2c1nc1ccccc12", "experimental-readout": "EC50", "result": "21.7 µM (inconclusive)"}
{"compound": "Cc1cc(C)cc(N2C(=O)NC(=O)/C(=C\\c3cc(C)n(C)c3C)C2=O)c1", "experimental-readout": "EC50", "result": "6.75 µM (active)"}
{"compound": "Cc1cc(-c2ccccc2)nc(N/N=C/c2ccc(O)cc2O)n1", "experimental-readout": "EC50", "result": "> 300 µM (not active)"}
{"compound": "Cc1ccc(/C=C2/C(=O)NC(=O)N(CCc3ccc(F)cc3)C2=O)o1", "experimental-readout": "EC50", "result": "> 300 µM (not active)"}

====

- assay-comment: A549 cell cytotoxicity, dose response, cytotoxicity control, plate reader, cherry-pick, antagonist series (AID 743412)
- Assay type: functional, cell-based
The source made the active and inactive calls.
Classes used: active, inactive

{"compound": "COc1ccc(-c2cc3nc(NCC4CCCCC4)n(C)c(=O)c3s2)cc1OC", "label": "active"}
{"compound": "COc1cc(SC)ccc1C(=O)Nc1nc2ccccc2[nH]1", "label": "active"}
{"compound": "OC(c1ccccc1)(c1ccccc1)C1CCN(CCCOc2cccc(C(F)(F)F)c2)CC1", "label": "active"}
{"compound": "Oc1nc2ccccc2n1C1CCN(C(c2cc3ccccc3o2)c2nnnn2Cc2ccccc2)CC1 (stereo not given)", "label": "active"}
{"compound": "Cc1ccc(-c2cc3onc(-c4ccccc4)c3c(=O)n2C)cc1", "label": "inactive"}
